B1: TPR t1 (parent)
chain: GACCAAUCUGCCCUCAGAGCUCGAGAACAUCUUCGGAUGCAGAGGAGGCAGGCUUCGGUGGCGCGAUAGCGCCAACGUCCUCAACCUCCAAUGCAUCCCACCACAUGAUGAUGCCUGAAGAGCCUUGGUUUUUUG

# Variants of: B1
# protocol-description: polymerase ribozyme fitness, log enrichment relative to wild type (log ratio); higher = more active; in vitro selection for triplet polymerase activity
measurement-type: polymerase ribozyme fitness (log ratio)

changes="A5C C73A" measured_value=-0.312
changes="U38G U78A" measured_value=-0.0381
changes="G47U G63A U116A" measured_value=-4.47
changes="U14G C72U" measured_value=-1.52
changes="A2U A37U U54A G69U U78G A105G" measured_value=-3.36
changes="C72A A83G" measured_value=-0.951
changes="C22A G45U C62U C73U" measured_value=-5.77
changes="U7A G69C A95G" measured_value=-0.796
changes="G48U A50U G60A C86G" measured_value=-2.89
changes="G35A G71A" measured_value=-4.49
changes="A27C C82U C124A" measured_value=-0.986
changes="C8A G45C A50C G57C G93C" measured_value=-2.56
changes="A37U A41U A50C C115U" measured_value=-4.64
changes="C15G C20U C73U U78G A111G" measured_value=-6.71
changes="G10C A18C C20U C56U" measured_value=-3.11
changes="A90G C104U" measured_value=-0.0421
changes="A6U C15U C31G G51A U54A C73U C115U" measured_value=-5.8
changes="C80U U112G G117C" measured_value=-5.23
changes="C8U C56A" measured_value=0.00842
changes="U59C U87A U112C" measured_value=0.815
changes="C56U U92A" measured_value=-2.86
changes="U126C U132C" measured_value=-1.79
changes="U32C G60A C97A C124U U131A" measured_value=-4.71
changes="C8A C64G C72U A121G" measured_value=-6.31
changes="C12U A18U A108U C114U A121C U129C" measured_value=-6.88
changes="G39U C64U A84C G122A C124A" measured_value=0.97
changes="A26G A84G G120A" measured_value=-2.95
changes="C8G G71A C82U C101A" measured_value=-1.2
changes="G60A U78C" measured_value=-0.393
changes="A83C C114G" measured_value=-2.24
changes="C34A C89A" measured_value=-5.68
changes="G39U A43G" measured_value=-1.75
changes="G42U U87C G128U U133A" measured_value=-3.75
changes="A46U G122U" measured_value=-0.865
changes="C8U C56U U96C" measured_value=0.0221
changes="G17U U130A" measured_value=-3.3
changes="C11U U55A C80A C86G C124G" measured_value=-4.52
changes="C53U G60A A74C" measured_value=-0.941
